- target: KCNQ4 potassium ion channel (Homo sapiens, UniProt P56696)
- assay-protocol: High throughput atomic absorption Rb+ efflux testing, CHO cell of KCNQ4 channel
- Type: cell-based
- setup-conditions: Rb+ efflux, CHO cell of KCNQ4 channel, 0.03-10 μM, FIG. 4; read-out: EC50
Let's look at some molecules and their measured EC50.
observed-property: EC50 (µM)

* O=c1cc(-c2cc(F)c(Cl)nc2Cl)[nH]c2c(-c3cccc4ccccc34)c(C(F)(F)F)nn12 [Compound 42] | 0.96
* O=c1cc(-c2cc(F)c(Cl)nc2Cl)[nH]c2c(-c3ccccc3)c(C(F)(F)F)nn12 [Compound 24] | 0.21

###

Listed here: items and their measured pEC50.
- target: KCNQ4 potassium ion channel (Homo sapiens)
- assay-protocol: High throughput atomic absorption Rb+ efflux testing, CHO cell of KCNQ4 channel
- Format: cell-based
- setup-conditions: Rb+ efflux by atomic absorption, CHO cell of KCNQ4 channel; read-out: KCNQ4
pEC50: −log10 of the molar value.
observed-property: pEC50

- O=c1cc(CN2CCCCC2)[nH]c2c(-c3ccccc3)c(C(F)(F)F)nn12 [Compound 25]: 4.46
- O=c1cc(-c2cc(F)c(F)cc2F)[nH]c2c(-c3ccccc3)c(C(Cl)(Cl)Cl)nn12 [Compound 99]: 4.74
- O=c1cc(CCl)[nH]c2c(-c3cccs3)c(Cl)nn12 [Compound 108]: 4.04
- O=C(OCc1cc(=O)n2nc(C(F)(F)F)c(N3CCNCC3)c2[nH]1)C(F)(F)F [Compound 86]: 4.30
- O=c1cc(CCl)[nH]c2c(-c3cccs3)c(C(F)(F)F)nn12 [Compound 96]: 5.27
- COc1ccc(-c2c(C(F)(F)F)nn3c(=O)cc(C(F)(F)F)[nH]c23)cc1OC [Compound 2]: 4.92
- O=c1cc(CCl)[nH]c2c(-c3ccccc3)c(C(F)(F)F)nn12 [Compound 21]: 4.62
- O=c1cc(-c2cccc([N+](=O)[O-])c2)[nH]c2c(-c3ccccc3)c(C(F)(F)F)nn12 [Compound 30]: 4.91
- O=C(Cc1ccc(C(F)(F)F)cc1)NCc1cc(=O)n2nc(C(F)(F)F)c(-c3ccccc3)c2[nH]1 [Compound 35]: 4.35
- O=c1cc(-c2ccc(Cl)cc2)[nH]c2c(-c3ccc(F)cc3)c(C(F)(F)F)nn12 [Compound 8]: 4.61
- O=c1cc(C(F)(F)F)[nH]c2c(-c3c[nH]c4ccccc34)c(-c3ccc(Cl)cc3)nn12 [Compound 77]: 4.08
- O=c1cc(-c2cc(F)c(Cl)nc2Cl)[nH]c2c(-c3ccc(F)cc3)c(C(F)(F)F)nn12 [Compound 22]: 6.82
- CCOC(=O)c1c(C(F)(F)F)nn2c(=O)cc(-c3ccccc3)[nH]c12 [Compound 5]: 4.17
- CCOC(=O)c1c(-c2ccc(Cl)cc2)nn2c(=O)cc(C(F)(F)F)[nH]c12 [Compound 73]: 4.22
- O=c1cc(-c2cc(F)c(Cl)nc2Cl)[nH]c2c(-c3cccs3)c(C(F)(F)F)nn12 [Compound 60]: 5.94
- O=c1cc(-c2ccccc2)[nH]c2c(-c3ccccc3)c(C(F)(F)F)nn12 [Compound 19]: 4.21
- O=c1cc(-c2cc(F)c(Cl)nc2Cl)[nH]c2c(-c3ccc(F)cc3)c(C(F)(F)F)nn12 [Compound 18]: 3.92

###

- target: KCNQ2/3 (Homo sapiens, UniProt O43525+O43526)
- assay-protocol: High throughput atomic absorption Rb+ efflux testing, KCNQ2/3
- setup-conditions: Rb+ efflux by atomic absorption
pEC50: −log10 of the molar value.
Each entry gets False if its pEC50 stays under 5, and True if its pEC50 is 5 or above.

* O=c1cc(-c2cc(F)c(Cl)nc2Cl)[nH]c2c(-c3ccccc3)c(C(F)(F)F)nn12 | True
* O=c1cc(-c2cc(F)c(F)cc2F)[nH]c2c(-c3ccccc3)c(C(Cl)(Cl)Cl)nn12 | False
* O=c1cc(-c2ccc(Cl)cc2)[nH]c2c(-c3ccc(F)cc3)c(C(F)(F)F)nn12 | True
* COc1ccc(-c2c(C(F)(F)F)nn3c(=O)cc(-c4cc(F)c(Cl)nc4Cl)[nH]c23)cc1OC | False
* O=c1cc(CN2CCCCC2)[nH]c2c(-c3ccccc3)c(C(F)(F)F)nn12 | False
* O=C(Cc1ccc(C(F)(F)F)cc1)NCc1cc(=O)n2nc(C(F)(F)F)c(-c3ccccc3)c2[nH]1 | False
* O=c1cc(CCl)[nH]c2c(-c3cccs3)c(Cl)nn12 | False
* O=c1cc(C(F)(F)F)[nH]c2c(-c3ccccc3)c(C(F)(F)F)nn12 | True
* O=c1cc(-c2cccc([N+](=O)[O-])c2)[nH]c2c(-c3ccccc3)c(C(F)(F)F)nn12 | True
* O=c1cc(-c2cc(F)c(Cl)nc2Cl)[nH]c2c(-c3ccc(F)cc3)c(C(F)(F)F)nn12 [Compound 22] | True
* O=c1cc(CN2CCNCC2)[nH]c2c(-c3cccs3)c(C(F)(F)F)nn12 | False
* O=c1cc(CCl)[nH]c2c(-c3cccc4ccccc34)c(C(F)(F)F)nn12 | True
* O=c1cc(C(F)(F)F)[nH]c2c(-c3c[nH]c4ccccc34)c(-c3ccc(Cl)cc3)nn12 | False
* O=c1cc(-c2ccccc2)[nH]c2c(-c3ccccc3)c(C(F)(F)F)nn12 | False
* O=c1cc(-c2cc(F)c(Cl)nc2Cl)[nH]c2c(-c3cccs3)c(C(Cl)(Cl)Cl)nn12 | True
* COc1ccc(-c2cc(=O)n3nc(C(F)(F)F)c(-c4cccc5ccccc45)c3[nH]2)cc1 | False
* O=c1cc(-c2cc(F)c(Cl)nc2Cl)[nH]c2c(-c3cccs3)c(C(F)(F)F)nn12 | True
* CCOC(=O)c1c(C(F)(F)F)nn2c(=O)cc(-c3ccccc3)[nH]c12 | False
* O=c1cc(-c2cc(F)c(Cl)nc2Cl)[nH]c2c(-c3ccc(F)cc3)c(C(F)(F)F)nn12 [Compound 18] | False
* O=c1cc(CCl)[nH]c2c(-c3ccccc3)c(C(F)(F)F)nn12 | True
* COc1ccc(-c2c(C(F)(F)F)nn3c(=O)cc(C(F)(F)F)[nH]c23)cc1OC | True
* O=c1cc(-c2cc(F)c(Cl)nc2Cl)[nH]c2c(-c3cccc4ccccc34)c(C(F)(F)F)nn12 | True
* O=C(NCc1cc(=O)n2nc(Cl)c(-c3ccc4ccccc4c3)c2[nH]1)C(F)(F)F | False
* O=C(OCc1cc(=O)n2nc(C(F)(F)F)c(N3CCNCC3)c2[nH]1)C(F)(F)F | False
* CCOC(=O)c1c(-c2ccc(Cl)cc2)nn2c(=O)cc(C(F)(F)F)[nH]c12 | False

###

Entries annotated with measured EC50
- target: KCNQ4 potassium ion channel (Homo sapiens, UniProt P56696)
- assay-protocol: High throughput atomic absorption Rb+ efflux testing, CHO cell of KCNQ4 channel
- Format: cell-based
- setup-conditions: Rb+ efflux by atomic absorption, CHO cell of KCNQ4 channel; read-out: KCNQ4
observed-property: EC50 (µM)

- O=c1cc(CCl)[nH]c2c(-c3cccc4ccccc34)c(C(F)(F)F)nn12: 21.7
- O=c1cc(CN2CCNCC2)[nH]c2c(-c3cccs3)c(C(F)(F)F)nn12: 33.3
- O=c1cc(-c2cc(F)c(Cl)nc2Cl)[nH]c2c(-c3cccs3)c(C(Cl)(Cl)Cl)nn12: 0.54
- COc1ccc(-c2c(C(F)(F)F)nn3c(=O)cc(-c4cc(F)c(Cl)nc4Cl)[nH]c23)cc1OC: 10.3
- O=C(NCc1cc(=O)n2nc(Cl)c(-c3ccc4ccccc4c3)c2[nH]1)C(F)(F)F: 43.2
- COc1ccc(-c2cc(=O)n3nc(C(F)(F)F)c(-c4cccc5ccccc45)c3[nH]2)cc1: 46.2
- O=c1cc(C(F)(F)F)[nH]c2c(-c3ccccc3)c(C(F)(F)F)nn12: 5.87
- O=c1cc(C(F)(F)F)[nH]c2c(-c3cccc4ccccc34)c(C(F)(F)F)nn12: 4.82
